Target: N-type calcium channel (α1B (Cav2.2), β3 and α2δ subunits) (Homo sapiens, UniProt Q00975)
Sequence (Q00975 whole entry): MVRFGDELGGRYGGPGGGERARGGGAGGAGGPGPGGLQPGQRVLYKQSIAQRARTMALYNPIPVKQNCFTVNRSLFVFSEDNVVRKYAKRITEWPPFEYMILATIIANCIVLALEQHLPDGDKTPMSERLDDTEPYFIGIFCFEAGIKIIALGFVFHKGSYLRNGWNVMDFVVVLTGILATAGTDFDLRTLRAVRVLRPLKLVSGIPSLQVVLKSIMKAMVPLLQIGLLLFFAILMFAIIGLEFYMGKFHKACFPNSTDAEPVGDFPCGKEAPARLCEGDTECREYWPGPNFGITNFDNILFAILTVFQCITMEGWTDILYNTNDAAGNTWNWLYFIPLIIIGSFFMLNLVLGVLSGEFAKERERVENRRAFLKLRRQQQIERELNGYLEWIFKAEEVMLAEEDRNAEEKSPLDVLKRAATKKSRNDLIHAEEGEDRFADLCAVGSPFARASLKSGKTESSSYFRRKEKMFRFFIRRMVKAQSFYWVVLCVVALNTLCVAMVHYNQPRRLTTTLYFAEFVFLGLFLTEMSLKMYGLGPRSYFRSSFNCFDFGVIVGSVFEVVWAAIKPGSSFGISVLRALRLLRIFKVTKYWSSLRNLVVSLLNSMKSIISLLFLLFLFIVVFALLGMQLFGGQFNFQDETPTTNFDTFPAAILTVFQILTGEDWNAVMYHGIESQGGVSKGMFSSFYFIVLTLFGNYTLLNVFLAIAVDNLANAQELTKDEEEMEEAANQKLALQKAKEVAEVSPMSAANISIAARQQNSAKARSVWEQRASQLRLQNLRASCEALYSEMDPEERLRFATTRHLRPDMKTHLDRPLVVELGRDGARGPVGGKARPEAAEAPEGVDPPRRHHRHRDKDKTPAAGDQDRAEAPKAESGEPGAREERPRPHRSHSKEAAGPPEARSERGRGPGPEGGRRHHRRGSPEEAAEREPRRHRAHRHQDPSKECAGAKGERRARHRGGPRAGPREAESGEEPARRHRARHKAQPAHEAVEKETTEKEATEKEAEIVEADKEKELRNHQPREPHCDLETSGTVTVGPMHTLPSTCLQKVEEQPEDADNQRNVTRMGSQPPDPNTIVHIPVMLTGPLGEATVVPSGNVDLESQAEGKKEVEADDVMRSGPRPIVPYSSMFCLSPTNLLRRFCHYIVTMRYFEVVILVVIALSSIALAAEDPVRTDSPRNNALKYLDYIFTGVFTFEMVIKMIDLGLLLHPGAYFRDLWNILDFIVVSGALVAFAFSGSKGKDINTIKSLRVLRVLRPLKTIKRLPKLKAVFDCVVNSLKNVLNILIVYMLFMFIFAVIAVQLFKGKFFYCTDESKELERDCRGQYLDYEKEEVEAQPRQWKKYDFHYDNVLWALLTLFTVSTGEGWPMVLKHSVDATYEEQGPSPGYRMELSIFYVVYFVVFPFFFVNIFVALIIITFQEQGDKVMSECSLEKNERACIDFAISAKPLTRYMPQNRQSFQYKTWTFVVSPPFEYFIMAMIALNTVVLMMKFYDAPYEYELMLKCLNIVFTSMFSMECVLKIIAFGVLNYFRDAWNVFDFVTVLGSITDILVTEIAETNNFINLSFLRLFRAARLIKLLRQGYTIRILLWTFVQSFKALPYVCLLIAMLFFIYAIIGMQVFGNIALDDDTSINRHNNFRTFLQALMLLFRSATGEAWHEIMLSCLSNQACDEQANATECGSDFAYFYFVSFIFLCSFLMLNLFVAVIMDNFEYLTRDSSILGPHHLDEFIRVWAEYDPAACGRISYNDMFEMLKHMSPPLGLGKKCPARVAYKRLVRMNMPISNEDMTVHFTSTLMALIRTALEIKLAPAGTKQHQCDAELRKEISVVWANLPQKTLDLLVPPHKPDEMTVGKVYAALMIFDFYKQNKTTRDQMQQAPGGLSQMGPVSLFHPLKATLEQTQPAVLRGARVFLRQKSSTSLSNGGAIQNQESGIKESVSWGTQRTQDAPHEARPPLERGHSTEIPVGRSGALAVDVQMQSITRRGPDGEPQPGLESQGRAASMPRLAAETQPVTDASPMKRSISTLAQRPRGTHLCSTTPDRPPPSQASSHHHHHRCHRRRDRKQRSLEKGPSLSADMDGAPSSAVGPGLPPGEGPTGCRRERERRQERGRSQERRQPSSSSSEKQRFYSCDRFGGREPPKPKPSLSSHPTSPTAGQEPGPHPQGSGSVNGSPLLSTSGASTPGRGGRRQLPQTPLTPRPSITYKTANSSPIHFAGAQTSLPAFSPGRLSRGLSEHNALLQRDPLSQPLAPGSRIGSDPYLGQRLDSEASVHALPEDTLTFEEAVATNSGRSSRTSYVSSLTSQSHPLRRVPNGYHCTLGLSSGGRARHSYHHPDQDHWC
Sequence (P54284 whole entry partner): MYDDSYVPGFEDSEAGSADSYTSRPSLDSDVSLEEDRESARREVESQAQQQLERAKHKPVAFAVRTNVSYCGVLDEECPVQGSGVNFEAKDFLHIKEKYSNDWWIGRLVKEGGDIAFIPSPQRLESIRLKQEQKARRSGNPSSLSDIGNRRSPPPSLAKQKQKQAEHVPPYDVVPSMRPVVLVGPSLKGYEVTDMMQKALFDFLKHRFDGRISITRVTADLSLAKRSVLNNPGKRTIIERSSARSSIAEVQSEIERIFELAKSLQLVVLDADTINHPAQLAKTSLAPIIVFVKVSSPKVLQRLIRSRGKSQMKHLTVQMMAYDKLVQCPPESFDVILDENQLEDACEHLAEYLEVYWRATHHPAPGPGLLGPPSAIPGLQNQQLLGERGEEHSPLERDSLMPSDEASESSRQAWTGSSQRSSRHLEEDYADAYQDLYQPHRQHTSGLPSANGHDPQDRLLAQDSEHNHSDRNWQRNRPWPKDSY
Sequence (P54289 25-946 partner limits assumed): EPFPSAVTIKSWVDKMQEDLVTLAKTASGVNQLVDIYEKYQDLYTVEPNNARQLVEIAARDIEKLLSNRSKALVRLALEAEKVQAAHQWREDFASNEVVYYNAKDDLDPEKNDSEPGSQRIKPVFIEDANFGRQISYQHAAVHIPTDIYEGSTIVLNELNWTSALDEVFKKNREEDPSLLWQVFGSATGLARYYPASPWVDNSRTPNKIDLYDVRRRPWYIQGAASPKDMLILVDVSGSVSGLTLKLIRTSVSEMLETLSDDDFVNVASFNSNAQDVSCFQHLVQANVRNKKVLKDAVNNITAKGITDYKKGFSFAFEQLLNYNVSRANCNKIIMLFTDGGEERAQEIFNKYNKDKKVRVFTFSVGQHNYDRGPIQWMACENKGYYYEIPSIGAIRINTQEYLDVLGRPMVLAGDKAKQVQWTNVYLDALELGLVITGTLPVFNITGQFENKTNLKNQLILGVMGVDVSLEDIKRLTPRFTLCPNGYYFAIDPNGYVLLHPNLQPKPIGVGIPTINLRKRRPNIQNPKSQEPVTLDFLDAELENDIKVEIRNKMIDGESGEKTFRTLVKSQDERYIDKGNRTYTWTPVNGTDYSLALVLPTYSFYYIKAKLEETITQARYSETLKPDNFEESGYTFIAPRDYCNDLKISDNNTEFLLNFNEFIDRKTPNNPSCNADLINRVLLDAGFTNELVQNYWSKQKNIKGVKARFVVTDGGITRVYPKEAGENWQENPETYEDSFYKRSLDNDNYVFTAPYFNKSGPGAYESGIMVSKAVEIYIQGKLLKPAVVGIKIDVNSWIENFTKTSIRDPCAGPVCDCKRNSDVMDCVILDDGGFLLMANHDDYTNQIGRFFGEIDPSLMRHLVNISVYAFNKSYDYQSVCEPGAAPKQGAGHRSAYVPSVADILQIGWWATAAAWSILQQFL
Sequence (P54289 947-1103 partner limits assumed): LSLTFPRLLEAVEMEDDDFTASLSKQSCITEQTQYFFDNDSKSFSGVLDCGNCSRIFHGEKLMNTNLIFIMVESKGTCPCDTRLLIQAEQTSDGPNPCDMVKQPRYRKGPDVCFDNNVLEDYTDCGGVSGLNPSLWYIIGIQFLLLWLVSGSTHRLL
Assay: Functional Assay: Antagonism of N-Type Calcium Channel (FDSS calcium mobilization, KCl depolarization)
Type: cell-based
Conditions: FDSS IC50
Procedure: A stable cell line (HEK parent) co-expressing the α1B (Cav2.2), β3 and α2δ subunits of the N-type calcium channel subunits was used. […] Calcium mobilization responses to KCl depolarization were evaluated by measuring the intensity of calcium-mediated fluorescent signal in the presence of BD Calcium Assay Dye (BD Biosciences, Franklin Lakes, N.J., U.S.A.), utilizing a Functional Drug Screening System (FDSS) by Hamamatsu Corporation (Bridgewater, N.J. U.S.A.). […]
metric name: IC50 (µM)
Field: numeric (µM). Do not append units.

query: May I ask what IC50 has been recorded for COc1ccccc1-n1nc2c(c1-c1ccc(Cl)cc1)C[C@H](OCC1CCCCC1)C2 [Compound 82] ?
result: 0.13
